# credit: the MegaScale stability set (Tsuboyama et al. 2023)

B1: HEEH_KT_rd6_3632 (parent)
chain: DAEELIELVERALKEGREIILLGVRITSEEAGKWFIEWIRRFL

Variants of: B1
test_method_notes: folding stability dG (cDNA display proteolysis); higher = more stable
condition_set: PBS, room temperature
Property: folding stability dG; scope: individual variants
Just the number plus its unit, please.

DAEELIELVERALKEGREIILLGVRNTSEEAGKWFIEWIRRFL [I26N]; 3.21 kcal/mol
DAEELIELVERALKEGREAILLGVRITSEEAGKWFIEWIRRFL [I19A]; 3.18 kcal/mol
DAEELIELVERALKEGREIILLGVRITSLEAGKWFIEWIRRFL [E29L]; 3.93 kcal/mol

q: What value of measured folding stability dG is listed for DAEELIELVERALKEGREIILLQVRITSEEAGKWFIEWIRRFL [G23Q] ?
a: 3.61 kcal/mol

q: What value of measured folding stability dG is listed for DAEELIELVERALKEGREIILLGVRITSEEAGKWFIEWIRCFL [R41C] ?
a: 4.34 kcal/mol

q: What value of measured folding stability dG is listed for DAEELIELVERALKEGREIILLGVRITSEEAGKWFIEWARRFL [I39A] ?
a: 2.92 kcal/mol

q: What value of measured folding stability dG is listed for DAEELIELFERALKEGREIILLGVRITSEEAGKWFIEWIRRFL [V9F] ?
a: 3.37 kcal/mol

q: What value of measured folding stability dG is listed for DAEELIELSERALKEGREIILLGVRITSEEAGKWFIEWIRRFL [V9S] ?
a: 2.75 kcal/mol

q: What value of measured folding stability dG is listed for DAEELIELVERALKEGREIILLGVRITSEEAGVWFIEWIRRFL [K33V] ?
a: 3.55 kcal/mol
